subject of test: T1, HLA-DQ2.5/CLIP peptide complex on Ba/F3 cells (human)
T1 construct: also called Ba/F3-HLA-DQ2.5/CLIP peptide
test description: FACS
Provide the reported FIG. 30 FACS value (IC17=0, DQN0139bb=100) of each item.
Form rule: numeric answer, no unit written next to it.

Exercise: What value of measured FIG. 30 FACS value (IC17=0, DQN0139bb=100) is listed for DQN0235ee (antibody, human IgG1, kappa, V domains shown, also called DQN0235He; DQN0235Le) VH: QQQLEESGGGLVKPGGTLTLTCKAGIDFSTYYYMCWVRQAPGKRPEWIACIFDGDGSTYYASWVNGRFTISKASSTTVTLRMTSLTAADTATYFCARSAGGSSSFGYFNLWGPGTLVTVSS VL: AYDMTQTPSSVSAAVGGTVTIKCQASQSISSSYLAWYHQKPGQSPKLLIYSASTLASGVPSRFKGSGSGTEFTLTISDLACADAATYYCQSYYYFSSNAWHTFGGGTKVEIKR ?
Solution: 82

Exercise: Give the measured FIG. 30 FACS value (IC17=0, DQN0139bb=100) of DQN0223hh (antibody, human IgG1, kappa, V domains shown, also called DQN0223Lh) VH: QQQLEESGGGLVKPGGTLTLTCKASRIDFSTYYYICWVRQSPWKGLEWIACIYSGDGYTYYPSWAKGRFSISKTSSTTVTLQVTSLTAADTATYFCARSYGGSSASAYFTLWGPGTQVTVSS VL: AVVLTQTASPVSAPVGGTVTIKCQASQSIGSNLGWYQQKPGQPPKLLIYGASALASGVPSRFKGSGSGTQFTLTINDLECADAATYYCQGYYYSSSAEWHSFGGGTKVEIKR .
Solution: 60.2

Exercise: Name the recorded FIG. 30 FACS value (IC17=0, DQN0139bb=100) for DQN0356bb (antibody, human IgG1, kappa, V domains shown, also called DQN0356Hb; DQN0356Lb) VH: QEQLVESGGGLVKPEGSLTLTCTASGFSFSSDYSVCWVRQAPGKGLEWIGCIYTGSDITYYASWAKGRFTISKTSSTTVTLQMTSLTAADTATWFCARSWNGYGGYADLWGPGTLVTVSS VL: AYDMAQTPASVEVAVGGTVTIKCQASQSIDNYLAWYQQKPGQPPKLLIYWASTLASGVSSRFKGSGSGTQFSLTISDLECADAATYYCQQYYSNSNVVNTFGGGTKVEIKR .
Solution: 98.3

Exercise: For DQN0271hh (antibody, human IgG1, kappa, V domains shown, also called DQN0271Lh) VH: QSLEESGGGLVKPGASLTLTCKASGFSFSSGYYMCWVRQAPGKGLEWIACIYAGSPDLTYYATWAKGRLTISTTSSTTVTLQLTSLTAADTATYFCARDPGNWGGYDDVRLWGPGTLVTVSS VL: AQVLTQTPSPVSAAVGGTVTISCQSSQSIYSNYLSWFQQKTGQPPKLLIYRASTLASGVPSRFKGSGSGTEFTLTISGVECDDAATYYCQGYYSGAIWTFGGGTKVEIKR , what is its reported FIG. 30 FACS value (IC17=0, DQN0139bb=100)?
Solution: 3.8

Exercise: What does the record list as FIG. 30 FACS value (IC17=0, DQN0139bb=100) for DQN0282ff (antibody, human IgG1, kappa, V domains shown, also called DQN0282Hf; DQN0282Lf) VH: QSVEESGGRLVTPGTPLTLSCKASGFDFSIYYMSWVRQAPGKGLEWIGVINSGGGVTWYASWVKGRFTISKTSTTVDLKITSPTTEDTATYFCARLGDSNHYDLWGPGTLVTVSS VL: AYDMTQTPSSVSAAVGGTVTIKCQASETISSYLAWYQQKPGQRPQLLIYDASNLASGVPSRFKGSGSGTEFTLTISDLECADAATYYCQTHYYITSTTFGGGTKVEIKR ?
Solution: 28.7

Exercise: FIG. 30 FACS value (IC17=0, DQN0139bb=100) for DQN0333hh (antibody, human IgG1, kappa, V domains shown, also called DQN0333Lh) VH: QSVEESGGRLVMPGGSLTLTCTASGFSLSSYYMNWVRQAPGKGLEWIGVIYSTDITDYATWATGRFTISKTSTTVDLKMTSLTAADTATYFCARELSPTTSGYIAYLWGPGTLVTVSS VL: AYDMTQTPASVEVAVGGTVTIKCQASQSISSYLAWYQQKPGQPPKLLIYSASTLASGVPSRFKGSGSGTQFTLTVIDVQCDDAATYYCQQTYSGKNVINTFGGGTKVEIKR ?
Solution: 116

Exercise: Look up FIG. 30 FACS value (IC17=0, DQN0139bb=100) for this binder: DQN0370hh (antibody, human IgG1, kappa, V domains shown, also called DQN0370Lh) VH: QSLEESGGGLVKPGGPLTLTCTASGFSFSSAYYMCWVRQAPGKGLEWIACIYVGSGSTYYTSWAKGRFTISKVSSTTMTLQMTSLTAADTATYFCARDPLIYYYYGELNLWGPGTLVTVSS VL: AVVLTQTASPVSAPVGGTVTIKCQASEDIYSNLAWYQQKPGQRPKVLIYSASTLASGVSSRFKGSRSGTEYTLSITDLGCADAATYYCQAYYDIGGVTFGGGTKVEIKR
Solution: 1

Exercise: Would you kindly share the measured FIG. 30 FACS value (IC17=0, DQN0139bb=100) for DQN0225dd (antibody, human IgG1, kappa, V domains shown, also called DQN0225Hd; DQN0225Ld) VH: QSLEESGGGLVKPGGTLTLTCTASGFSFSSAYYMCWVRQAPGKGLEWIACIYVGSGSTYYASWAQGRCTISKASSTTVTLQMTSLTAADTATYFCARDPLIYYYYGELNLWGPGTLVTVSS VL: AVVLTQTASPVSAPVGGTVTIKCQASEDISSNLAWYQQKPGQRPKVLIYSASTLASGVSSQFKGSGSGTQFTLTISDLECADAATYYCQSYYDISSVTFGGGTKVEIKR ?
Solution: 1.2

Exercise: Data request, read-out FIG. 30 FACS value (IC17=0, DQN0139bb=100), for DQN0324hh (antibody, human IgG1, kappa, V domains shown, also called DQN0324Lh) VH: QSLEESGGDLVKPGASLALTCTASGFSLINNYYMCWVRQAPGKGLEWIACIYAGLGGWTYYASWAKGRFTISKTSSTTVTLQMSSLTVADAATYFCARAATTYYHFNLWGPGTLVTVSS VL: AVVLTQTESPVSAAVGDTVTIKCQASQSIGNALAWYQQKPGQPPKLLIYDASTLASGVPSRFKGSGSGTQFTLTISDLECADAATYYCQSYDYGSSADTYTFGGGTKVEIKR
Solution: 0.3

Exercise: Endpoint output: FIG. 30 FACS value (IC17=0, DQN0139bb=100) of DQN0334bb (antibody, human IgG1, kappa, V domains shown, also called DQN0334Hb; DQN0334Lb) VH: QQQLEESGGDLVQPEGSLTLTCKASGFDFSFNAMCWVRQAPGRGPEWIACIYNGNGSTYYASWAKGRFTISKTSSTSVTLQMTSLTAADTATYFCARGGYGLGYAGYGDVNYFNLWGPGTLVTVSS VL: AVVLTQTASPVSAPVGGTVTIKCQASEDIYFLLAWYRQKPGQPPKLLIYGASTLASGVPSRFKGSGSGTEYTLTISDLECADAATYYCQSYWYGDSGPNTFGGGTKVEIKR . Value?
Solution: 1.2

Exercise: Tell me the measured FIG. 30 FACS value (IC17=0, DQN0139bb=100) of DQN0303hh (antibody, human IgG1, kappa, V domains shown, also called DQN0303Lh) VH: QQHLEESGGGLVKPGGTLTLTCTASGIDFSSYYYMCWVRQAPGKGLEWIACIYTGDGSTYYASWVNGRFTISRSTSLNTVTLQLNGLAAADTATYFCARSYGASSAIGYFNLWGPGTLVTVSS VL: DVVMTQTPSSKSAAVGGTVTIKCQASQNIYSNLAWYQQKPGQRPKLLIYEASTLASGVPSRFRGSGSGTEFTLTISDLECDDAATYYCQNYYYTSSNDFYTFGGGTKVEIKR , please.
Solution: 80
